test: Lethal dose in L1210-bearing female BDF1 mice; type: toxicity, organism-based; conditions: BDF1, mouse, in vivo
parameter-measured: LD50 (mg/kg)

> print(dat)
                                   compound  measured
1  NC(=O)c1nn(C2O[C@H](CO)[C@@H](O)[C@H]2O)cp1 (stereo partly specified)       480
